- system.name: PI3K (Homo sapiens)
- Sequence (P42336 whole entry): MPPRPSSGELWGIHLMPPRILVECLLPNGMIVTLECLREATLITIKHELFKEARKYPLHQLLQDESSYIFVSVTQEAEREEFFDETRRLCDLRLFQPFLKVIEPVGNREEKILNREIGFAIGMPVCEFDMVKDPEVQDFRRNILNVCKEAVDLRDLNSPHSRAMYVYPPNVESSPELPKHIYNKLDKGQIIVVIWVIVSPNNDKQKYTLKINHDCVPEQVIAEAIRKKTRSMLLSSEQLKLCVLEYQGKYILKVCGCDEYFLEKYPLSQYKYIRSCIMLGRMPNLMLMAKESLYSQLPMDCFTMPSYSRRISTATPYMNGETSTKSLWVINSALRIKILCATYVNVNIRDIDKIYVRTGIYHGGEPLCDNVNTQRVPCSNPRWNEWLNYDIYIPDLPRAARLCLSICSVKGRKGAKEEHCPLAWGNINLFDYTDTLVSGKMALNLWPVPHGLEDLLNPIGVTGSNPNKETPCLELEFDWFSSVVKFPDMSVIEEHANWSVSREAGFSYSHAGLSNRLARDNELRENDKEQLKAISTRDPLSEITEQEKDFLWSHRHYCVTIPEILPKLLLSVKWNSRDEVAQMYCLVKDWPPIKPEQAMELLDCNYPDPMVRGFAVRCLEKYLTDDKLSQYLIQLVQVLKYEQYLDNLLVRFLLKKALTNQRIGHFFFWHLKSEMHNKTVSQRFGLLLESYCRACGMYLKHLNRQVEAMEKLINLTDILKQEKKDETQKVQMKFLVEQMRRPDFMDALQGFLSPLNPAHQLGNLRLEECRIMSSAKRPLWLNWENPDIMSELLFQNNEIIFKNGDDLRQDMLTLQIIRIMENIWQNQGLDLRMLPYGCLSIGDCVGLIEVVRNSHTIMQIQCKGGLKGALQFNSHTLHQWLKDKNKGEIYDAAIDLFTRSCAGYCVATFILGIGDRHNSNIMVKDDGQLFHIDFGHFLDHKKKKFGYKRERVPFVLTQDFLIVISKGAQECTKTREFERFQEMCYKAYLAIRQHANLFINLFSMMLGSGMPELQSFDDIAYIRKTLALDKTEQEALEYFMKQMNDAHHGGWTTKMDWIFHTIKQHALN
- Sequence (P27986 whole entry partner): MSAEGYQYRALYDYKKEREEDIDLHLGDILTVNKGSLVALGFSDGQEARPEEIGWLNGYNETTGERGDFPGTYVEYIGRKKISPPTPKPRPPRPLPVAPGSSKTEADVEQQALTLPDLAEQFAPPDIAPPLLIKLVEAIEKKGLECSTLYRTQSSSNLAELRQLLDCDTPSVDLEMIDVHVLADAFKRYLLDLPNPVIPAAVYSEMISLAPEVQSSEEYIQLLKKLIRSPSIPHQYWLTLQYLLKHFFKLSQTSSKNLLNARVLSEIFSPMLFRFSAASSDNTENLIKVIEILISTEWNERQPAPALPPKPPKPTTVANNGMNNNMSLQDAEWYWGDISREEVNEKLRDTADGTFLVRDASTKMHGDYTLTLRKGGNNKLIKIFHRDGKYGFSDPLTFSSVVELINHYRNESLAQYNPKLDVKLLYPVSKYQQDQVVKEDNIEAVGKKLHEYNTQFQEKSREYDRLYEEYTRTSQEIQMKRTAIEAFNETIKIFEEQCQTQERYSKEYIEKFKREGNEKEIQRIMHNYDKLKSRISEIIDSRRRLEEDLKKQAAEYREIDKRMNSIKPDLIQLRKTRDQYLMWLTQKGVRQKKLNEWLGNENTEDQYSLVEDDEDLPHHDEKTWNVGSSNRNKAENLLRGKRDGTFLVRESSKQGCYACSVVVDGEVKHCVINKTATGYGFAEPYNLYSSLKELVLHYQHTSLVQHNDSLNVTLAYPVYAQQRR
- assay.protocol: Fluorescence polarization assay for PI3K
- Format: biochemical
- test.context: PI3Kα; read-out: PI3Kα IC50
Criterion: IC50 strictly less than 0.1 µM. Met: Y. Not met: N.

Example entries and their recorded answers appear below.
compound	category
CCNC(=NC#N)Nc1ccc(-c2nc(N3CCOCC3)c3cnn(C4CCN(Cc5cccnc5)CC4)c3n2)cc1 [Compound 652]	N
COC(=O)N1CCC(n2ncc3c(N4CCOCC4)nc(-c4ccc(NC(=O)OCCN)cc4)nc32)CC1	N
CNC(=O)Nc1ccc(-c2nc(N3CCOCC3)c3cnn(C4CCN(C(=O)NC)CC4)c3n2)cc1 [Example 477]	N
c1ccc(-n2ncc3c(N4CCOCC4)nc(-c4ccc[nH]4)nc32)cc1	N

Task: Lab note: IC50 threshold 0.1 µM. Does this compound come in strictly under it? COc1ncccc1CN1CCC(n2ncc3c(N4CCOCC4)nc(-c4ccc5[nH]ccc5c4)nc32)CC1
Result: N

Task: Hello, I'm reviewing records and need to know if IC50 of O=C(Nc1ccc(-c2nc(N3CCOCC3)c3cnn(C4CCN(Cc5cccnc5)CC4)c3n2)cc1)Nc1ccccn1 [Compound 588] is below 0.1 µM. Could you check?
Result: Y

Task: Quick check: does Nc1ccc(-c2nc(N3CCOCC3)c3cnn(C4CCCCO4)c3n2)cc1 (centres unmarked) [Compound 264] have IC50 under 0.1 µM?
Result: N

Task: Threshold test, IC50 < 0.1 µM: CNC(=O)Nc1ccc(-c2nc(N3CCOCC3)c3cnn(C4CCN(Cc5cncc(Br)c5)CC4)c3n2)cc1 [Compound 638]
Result: Y

Task: Record CNC(=O)Nc1ccc(-c2nc(N3CCOCC3)c3cnn(C4CCN(CC(=O)OC)CC4)c3n2)cc1 : is its IC50 strictly below 0.1 µM?
Result: N

Task: Please indicate whether the reported IC50 of CN(C)S(=O)(=O)c1ccc(-c2nc(N3CCOCC3)c3cnn(C4CCN(Cc5ccccc5)CC4)c3n2)cc1 is strictly below 0.1 µM.
Result: N

Task: Hi there! Is IC50 for CNC(=O)Nc1ccc(-c2nc(N3CCOCC3)c3cnn(C4CCN(C(=O)c5cccc(F)c5)CC4)c3n2)cc1 [Compound 603] below 0.1 µM, do you know?
Result: Y

----------
- system.name: PI3K (Homo sapiens)
- assay.protocol: Fluorescence polarization assay for PI3K;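 note: PI3K kinase reaction on PIP2 with ATP, 30-60 min, product sensed by GST-GRP with red probe in fluorescence polarization (mP), controls without enzyme and at zero time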
- Assay type: biochemical
- test.context: PI3Kα; read-out: PI3Kα IC50
log10(IC50) overview
Please keep in mind that the values are log10 of IC50 expressed in nM.

compound	log10(IC50)
CCNC(=O)Nc1ccc(-c2nc(N3CCOCC3)c3cnn(C4CCN(C(=O)OC)CC4)c3n2)cc1 [Compound 731]	2.69
c1cc2cc(-c3nc(N4CCOCC4)c4cnn(C5CCSCC5)c4n3)ccc2[nH]1 [Compound 171]	2.74
c1cc(CN2CCC(n3ncc4c(N5CCOCC5)nc(-c5ccc6[nH]ccc6c5)nc43)CC2)ccn1 [Compound 179]	2.81
CNC(=O)Nc1ccc(-c2nc(N3CCOCC3)c3cnn(C4CCN(C(C)=O)CC4)c3n2)cc1 [Compound 716]	2.35
CC(=O)Nc1ccc(-c2nc(N3CCOCC3)c3cnn(C4CCN(C(=O)c5cccnc5)CC4)c3n2)cc1 [Example 159]	2.94

Task: Please give the measured log10(IC50) for this compound: CCOC(=O)N1CCC(n2ncc3c(N4CCOC[C@@H]4C)nc(-c4ccc(NC(=O)Nc5cccnc5)cc4)nc32)CC1 [Compound 897]
Result: 1.45
